Please go through the items and note down their Plant response rating, Barnyardgrass.
System: barnyardgrass (Echinochloa crus-galli)
Assay: Test B flooded paddy test
Format: in vivo
Details: Flood, 250 g ai/ha; 0 to 100 scale where 0 is no effect and 100 is complete control; 13 to 15 d

What Plant response rating, Barnyardgrass appears in the records for this compound with barnyardgrass (Echinochloa crus-galli)? CC(C)c1ccc(C2CNC(=O)C2C(=O)Nc2ccccc2S(C)(=O)=O)cc1 (racemic) [Compound 500] 0

Same thing, different compound: Cc1cc(C2CNC(=O)C2C(=O)Nc2cccc(F)c2F)ccc1F (stereo not shown) [Compound 400] 65

Same thing, different compound: CN1CC(c2ccc(F)c(C(F)(F)F)c2)C(C(=O)Nc2ccccc2F)C1=O (stereo not shown) [Compound 611] 85

Same thing, different compound: CN1CC(c2cccc(C(F)(F)F)c2)C(C(=O)Nc2ccccc2C(F)(F)F)C1=O (stereo not shown) [Compound 638] 85

Same thing, different compound: CC(C)c1ccc(C2CNC(=O)C2C(=O)Nc2ccccc2F)cc1 (stereo not shown) [Compound 469] 40

Same thing, different compound: O=C1NCC(c2cc(F)cc(C(F)(F)F)c2)C1C(=O)Nc1cccc(F)c1F (stereo not shown) [Compound 488] 65

Same thing, different compound: O=C1NCC(c2ccc(C(F)(F)F)c(F)c2)C1C(=O)Nc1ccccc1F (racemic) [Compound 521] 40

Same thing, different compound: O=C1NCC(c2cc(F)ccc2F)C1C(=O)Nc1cccc(F)c1F (racemic) [Compound 546] 70

Same thing, different compound: O=C1NCC(c2cc(C(F)(F)F)ccc2F)C1C(=O)Nc1ccccc1F (stereo not shown) [Compound 593] 60

Same thing, different compound: CN1C[C@H](c2ccc(F)c(F)c2)[C@@H](C(=O)Nc2ccccc2F)C1=O [Compound 596] 95

Same thing, different compound: Cn1nccc1NC(=O)C1C(=O)NCC1c1ccc(F)c(F)c1 (racemic) [Compound 362] 0

Same thing, different compound: CC(C)c1ccc(C2CNC(=O)C2C(=O)Nc2cccc(F)c2F)cc1 (stereo not shown) [Compound 470] 0

Same thing, different compound: C=C(C)CN1CC(c2cccc(C(F)(F)F)c2)C(C(=O)Nc2cccc(F)c2F)C1=O (stereo not shown) [Compound 479] 0

Same thing, different compound: O=C1NCC(c2ccccc2-c2ccccc2)C1C(=O)Nc1ccccc1F (racemic) [Compound 381] 0

Same thing, different compound: CN1CC(c2ccc(C(F)(F)F)cc2F)C(C(=O)Nc2ccccc2F)C1=O (stereo not shown) [Compound 476] 0

Same thing, different compound: O=C(Nc1ccccc1F)C1C(=O)N(CC=CCl)CC1c1cccc(C(F)(F)F)c1 (stereo not shown) [Compound 483] 0

Same thing, different compound: Cc1cc(C2CN(C)C(=O)C2C(=O)Nc2ccccc2C(F)(F)F)ccc1F (stereo not shown) [Compound 406] 70

Same thing, different compound: COc1c(F)ccc(NC(=O)C2C(=O)NCC2c2cc(F)cc(F)c2)c1F (racemic) [Compound 541] 35

Same thing, different compound: CN1CC(c2ccc(C(F)(F)F)cc2F)C(C(=O)Nc2cccc(F)c2F)C1=O (stereo not shown) [Compound 472] 60

====

System: corn (Zea mays)
Test: Test A postemergence
Format: in vivo
Conditions: Zea mays, post-emergence, 240 h, 500 g ai/ha, postemergence; 0 to 100 scale, 0 is no effect, 100 is complete control; read-out: Corn plant response rating
MEASUREMENT_KIND: plant injury at 500 g/ha (%)
Just the number please, in %, no unit attached.

What value of plant injury at 500 g/ha has been reported for the following molecule? `CN1C[C@H](c2csc3ccccc23)[C@@H](C(=O)Nc2ccccc2F)C1=O` 70

Same thing, different molecule: CC(C)=CC1CNC(=O)C1C(=O)Nc1ccccc1S(C)(=O)=O (stereo not shown) 0

Same thing, different molecule: `O=C1NC[C@H](c2cccc(I)c2)[C@H]1C(=O)Nc1ccccc1F` 80

Same thing, different molecule: `CCc1cc([C@H]2CNC(=O)[C@@H]2C(=O)Nc2cccc(F)c2F)cs1` 30
